Target: Factor X (FX), P00742
Sequence (P00742 whole entry, looked up): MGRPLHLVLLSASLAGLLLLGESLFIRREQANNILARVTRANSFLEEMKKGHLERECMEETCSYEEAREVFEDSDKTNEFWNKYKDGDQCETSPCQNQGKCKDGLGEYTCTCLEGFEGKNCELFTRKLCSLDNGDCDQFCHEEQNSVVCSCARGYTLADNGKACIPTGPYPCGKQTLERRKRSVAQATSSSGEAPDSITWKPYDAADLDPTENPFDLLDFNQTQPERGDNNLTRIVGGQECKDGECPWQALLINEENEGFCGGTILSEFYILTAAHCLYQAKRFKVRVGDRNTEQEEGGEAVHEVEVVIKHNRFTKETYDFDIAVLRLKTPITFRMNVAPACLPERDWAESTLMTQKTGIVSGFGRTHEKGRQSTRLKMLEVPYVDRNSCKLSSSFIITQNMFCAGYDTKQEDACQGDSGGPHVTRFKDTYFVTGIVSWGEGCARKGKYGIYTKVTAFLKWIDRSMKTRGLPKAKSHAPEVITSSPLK
I'd be grateful if you could share measured kcat of FX activation by FIXa (Xase complex with FVIIIa, PC/PS vesicles, Ca2+) for these entries.
Numbers only, in s⁻¹.

FIXa-K247N/N249S/N260S (protein) chain 1: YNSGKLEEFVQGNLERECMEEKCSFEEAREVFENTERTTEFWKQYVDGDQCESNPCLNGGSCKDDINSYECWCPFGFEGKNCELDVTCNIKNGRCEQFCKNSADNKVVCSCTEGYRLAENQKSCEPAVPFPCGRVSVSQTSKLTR chain 2: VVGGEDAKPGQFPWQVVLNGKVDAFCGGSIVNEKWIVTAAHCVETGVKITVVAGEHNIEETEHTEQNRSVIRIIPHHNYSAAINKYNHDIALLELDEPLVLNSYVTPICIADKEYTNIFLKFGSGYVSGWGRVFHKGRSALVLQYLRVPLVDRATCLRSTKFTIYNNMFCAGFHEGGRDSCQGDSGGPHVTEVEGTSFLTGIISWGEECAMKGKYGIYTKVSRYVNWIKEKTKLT
3.3

Now for a further protein.
// query Consider the protein FIXa-K228N/K247N/N249S/R318Y/R338E/R403E/E410N (protein) chain 1: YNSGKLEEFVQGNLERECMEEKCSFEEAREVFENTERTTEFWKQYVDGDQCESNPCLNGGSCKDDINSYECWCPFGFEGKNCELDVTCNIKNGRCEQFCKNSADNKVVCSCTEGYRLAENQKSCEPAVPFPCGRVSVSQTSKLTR chain 2: VVGGEDAKPGQFPWQVVLNGKVDAFCGGSIVNEKWIVTAAHCVETGVNITVVAGEHNIEETEHTEQNRSVIRIIPHHNYNAAINKYNHDIALLELDEPLVLNSYVTPICIADKEYTNIFLKFGSGYVSGWGRVFHKGYSALVLQYLRVPLVDRATCLESTKFTIYNNMFCAGFHEGGRDSCQGDSGGPHVTEVEGTSFLTGIISWGEECAMKGKYGIYTKVSEYVNWIKNKTKLT . State its measured kcat of FX activation by FIXa (Xase complex with FVIIIa, PC/PS vesicles, Ca2+).
// result 7.1
